Every entry's value here was drawn from PubChem BioAssay (NCI).

// values below are reported growth
- Tested on: MDA-MB-231 breast
- protocol: NCI-60 one-dose screen, 48 h (100 = growth as untreated, 0 = no growth, -100 = all killed)
- condition.notes: 10 µM unless noted
Compounds without any hit were thinned out: in the full panel of roughly 83,000, 20% have a hit.
property.name: growth (%)

1) COc1ccc(C2=Nc3c(N)nc(N)nc3NC(c3cccc(Nc4ccnc5cc(C(F)(F)F)ccc45)c3)C2)cc1 (centres undefined); 70.8
2) COC(=O)[C@]12CCC(C)(C)C[C@H]1[C@H]1/C(=N/OCCc3nn[nH]n3)C[C@@H]3[C@@]4(C)CC[C@H](OC(C)=O)C(C)(C)[C@@H]4CC[C@@]3(C)[C@]1(C)CC2; 48.5
3) N#CC1=C(c2ccccc2)Nc2c(c(-c3ccc(Cl)cc3)nn2-c2ccccc2)C12C(=O)Nc1ccc(Cl)cc12 (centres undefined); 58.8
4) O=C(Nc1ccccc1)Nc1ncnc2c1ncn2-c1ccc(Cl)cc1; 80.8

====

- Tested on: MALME-3M melanoma
- protocol: NCI-60 one-dose screen, 48 h (100 = growth as untreated, 0 = no growth, -100 = all killed)
- condition.notes: 10 µM unless noted
About 83,000 compounds went through this panel and 20% of them were active in at least one assay; those are over-represented in the sample as a whole.
property.name: growth (%)

1. COc1cc(OC)c(NC(=O)c2cc3ccccc3cc2O)cc1Cl; 19.5
2. Nc1c(C(=O)Nc2ccncc2)sc2nc3c(cc12)C(O)CCC3 (stereo not given); 118
3. O=C(Nc1nc2ccccc2s1)c1ccc(F)cc1; 96.2
4. Cn1cc(-c2csc(-c3cn(C(=O)OC(C)(C)C)c4ccc(Br)cc34)n2)c2ccnc(Cl)c21; 36.6
5. COc1ccc(C/C(C)=C(/c2ccc(OCCN(C)C)cc2)c2ccc(OC(=O)NCc3ccccc3)cc2)cc1; 88.5

====

- System: MALME-3M melanoma
- protocol: NCI-60 one-dose screen, 48 h (100 = growth as untreated, 0 = no growth, -100 = all killed)
- condition.notes: 10 µM unless noted
The panel holds about 83,000 compounds, 20% with a hit somewhere; the sample as a whole holds those more often.
property.name: growth (%)

1) CSc1oc(C)nc1[P+](c1ccccc1)(c1ccccc1)c1ccccc1; 76.1
2) O=C1/C(=C/c2cccc(F)c2)CN(C(=O)C(Cl)Cl)C/C1=C\c1cccc(F)c1; -36.2
3) COc1ccc(/C=C(\C#N)n2nnc3cc(Cl)ccc32)cc1; 34.6
4) Nc1ncnc2c1C(c1ccccc1)c1ccc3ccccc3c1O2 (stereo not given); 110
5) CCOc1ccc(NC(=O)CSc2oc(-c3ccccc3)nc2S(=O)(=O)c2ccc(C)cc2)cc1; 81
6) CCN(CC)CCCCCNc1cc(OC(=O)c2ccc(Cl)cc2)cc2cccnc12; 61
7) CC1(C)COB(OCC(C)(C)COB2OCC(C)(C)CO2)OC1; 93.8
8) COc1ccc(-c2noc(C(=O)O)c2-c2cc(OC)c(OC)c(OC)c2)cc1; 52.8
9) Nc1ncnc2c1N=C(c1ccc(Br)cc1)CC(c1cccc(Nc3ccnc4cc(C(F)(F)F)ccc34)c1)N2 (stereo not given); 76.8
10) OCCn1cc(-c2nc(-c3c[nH]c4ncccc34)cs2)c2cc(F)ccc21; 84.9

====

- System: U251 CNS
- protocol: NCI-60 one-dose screen, 48 h (100 = growth as untreated, 0 = no growth, -100 = all killed)
- condition.notes: 10 µM unless noted
Compounds without any hit were thinned out: in the full panel of roughly 83,000, 20% have a hit.
property.name: growth (%)

1) CN(C)c1ccc(C(=O)OCCCCCCl)cc1; 99.7
2) CC1CCc2c(C(=O)Nc3ncc(Cc4cccc([N+](=O)[O-])c4)s3)csc2C1 (centres undefined); 26.9
3) CCC1=C[C@@H]2C[C@]3(C(=O)OC)c4[nH]c5ccccc5c4CC[N@+](CC(=O)Nc4cc5c(cc4OC)N(C)[C@H]4[C@@](O)(C(=O)OC)[C@H](OC(C)=O)[C@]6(CC)C=CCN7CC[C@]54[C@@H]76)(C2)[C@H]13; 97.3
4) NS(=O)(=O)c1ccc(N=Nc2c(O)n(Cc3ccccc3)c3ccc(Cl)cc23)cc1; 81.7
5) CCOC(=O)C1=C(N)Oc2c(sc3c(F)cccc23)C1c1ccc(O)cc1 (centres undefined); 37.9
6) CC(=O)c1c(C)nc2ccccc2c1/C=C/c1ccc(F)cc1; 86.7
7) O=C(Nc1cccc2ccccc12)NC1CC1; 101
8) N#CC1=C(N)Oc2c(c(=O)[nH]c3ccc(Cl)cc23)C12C(=O)c1ccccc1C2=O; 99.4
9) O=[N+]([O-])c1ccc(O)cc1Br; 103

====

- System: UO-31 renal
- protocol: NCI-60 one-dose screen, 48 h
- condition.notes: 10 µM unless noted
The panel holds about 83,000 compounds, 20% with a hit somewhere; the sample as a whole holds those more often. Calls of active or inactive are those of the source. Rule for the calls: active = growth percent below 10; inactive = the rest.
Outcomes: active, inactive

1) O=C1/C(=C/c2cccc(F)c2)CN(C(=O)C(Cl)Cl)C/C1=C\c1cccc(F)c1; active
2) Cc1ccccc1/C=C/C(=O)c1cccc(OCCCCOc2cccc(C(=O)/C=C/c3ccccc3C)c2)c1; inactive
3) COc1cc(OC)c(/C=C/C(=O)c2c(OC)cccc2OC)c(OC)c1; inactive
4) CC1(C)COB(OCC(C)(C)COB2OCC(C)(C)CO2)OC1; inactive
5) CCN(CC)c1ccc(\C=N/N=C(N)/C(N)=N\N=C/c2ccc(N(CC)CC)cc2)cc1; inactive
6) OCCn1cc(-c2nc(-c3c[nH]c4ncccc34)cs2)c2ccccc21; inactive
7) COC12C=C/C(=C(/C(=O)OCc3ccncc3)C(=O)CCCCCCCCC3(OC)C=C/C(=C(/C(=O)OCc4ccncc4)C(=O)CCCCCCCC1)O3)O2; active
8) O=C(C[C@]1(O)C(=O)Nc2ccccc21)c1cccc(C(F)(F)F)c1; inactive
9) N#CC1=C(N)Oc2c(c(=O)[nH]c3ccc(Cl)cc23)C12C(=O)c1ccccc1C2=O; inactive
10) COc1ccc(/C=N\Nc2nc(SCCC(C)C)nc(-c3ccc(OC)cc3)c2C#N)cc1; active
11) C=C1C(=O)O[C@H]2[C@H]1CC/C(COC(=O)C(=O)c1cn(C)c3ccc(Cl)cc13)=C\CC[C@@]1(C)O[C@@H]21; active
12) C=CC[Se]C(=O)Cc1c(C)n(C(=O)c2ccc(Cl)cc2)c2ccc(OC)cc12; active
13) CCCCCCCCCCC(CN(CC)CC)C(O)c1ccccc1 (stereo not given); inactive
14) CN(C)CC(C)(C)C(=O)/C=C/c1ccccc1; active
15) COc1ccc(/C=C/C(=O)c2cc3c(N)c(C(=O)Nc4cccc5ccccc45)sc3nc2C)cc1; inactive
16) Cc1sc2nc(NCCc3c[nH]c4ccc(Cl)cc34)[nH]c(=O)c2c1C; inactive
17) CCCNC(=O)Nc1ccc2cc3ccc(NC(=O)NCCC)cc3nc2c1; inactive
18) COc1ccc(\C=N/N=C(N)/C(N)=N\N=C/c2ccc(OC)cc2)cc1; inactive
19) O=S(=O)(Nc1ccc(F)cc1F)c1ccc(-c2cnc(C3CC3)o2)cc1; inactive
20) Cc1cn(-c2cc(NC(=O)c3cccc(C#Cc4cccc5[nH]nc(N)c45)c3)cc(C(F)(F)F)c2)cn1; active

====

- System: KM12 colon
- protocol: NCI-60 one-dose screen, 48 h (100 = growth as untreated, 0 = no growth, -100 = all killed)
- condition.notes: 10 µM unless noted
This is part of a sample that, as a whole, favours compounds with a hit. Of some 83,000 tested, about 20% had one in any assay. Calls of active or inactive are those of the source. The calls were made as follows: active = growth percent below 10; inactive = the rest.
property.name: growth

1. CNC(=O)c1[nH]cc(-c2ccc(OC)cc2)c1-c1cc(OC)c2c(c1OC)OCO2; 104% (inactive)
2. NC(=O)c1c(NC(=O)c2ccc3ccccc3c2)sc2c1CCC(=O)C2; 34.9% (inactive)
3. CC(C)=CC(=O)OCC(=O)O[C@@H]1C[C@]2(C(C)C)O[C@@]1(C)[C@@H]1CC[C@@H](C)[C@H]1[C@@H]2OC(=O)/C=C/c1ccccc1; 89.4% (inactive)
4. CCOC(=O)c1cc(C(=O)c2cc(OC)c(OC)c(OC)c2)n2ncccc12; 20.8% (inactive)
5. CC1(C)CC(=O)C2=C(C1)N(c1ccc(OC(F)(F)F)cc1)C(N)=C(C#N)C2c1ccc(Br)cc1F (stereo not drawn); 89.5% (inactive)
6. COC12C=C/C(=C(/C(=O)OCc3ccncn3)C(=O)CCCCCCCCC3(OC)C=C/C(=C(/C(=O)OCc4ccncn4)C(=O)CCCCCCCC1)O3)O2; -75.9% (active)
7. CCSc1oc(-c2ccccc2)nc1[P+](c1ccccc1)(c1ccccc1)c1ccccc1; -16.2% (active)
8. Nc1nc(-c2ccc(Cl)cc2)nc2c1sc(=S)n2-c1ccccc1; 36% (inactive)
